Measured values drawn from PubChem BioAssay (NCI) for this set.

System: LOX IMVI melanoma
MEASUREMENT_DESCRIPTION: NCI tumour cell line growth inhibition, 48 h
MEASUREMENT_KIND: TGI

In the examples that follow, each entry is paired with its recorded TGI.
>  <COMPOUND>
CN1CCN(c2ccc3c4c(cccc24)C(=O)N(CCN2CCN(CCCN4CCN(CCN5C(=O)c6cccc7c(N8CCN(C)CC8)ccc(c67)C5=O)CC4)CC2)C3=O)CC1

>  <TGI>
11.6 µM

$$$$
>  <COMPOUND>
COP(C)(=O)/C(Cc1ccccc1)=N\O (stereo not given)

>  <TGI>
> 100 µM

$$$$
>  <COMPOUND>
COC(=O)CC1(CNC(=O)OCc2ccccc2)OCCO1

>  <TGI>
> 100 µM

$$$$
>  <COMPOUND>
CCCN(CCC)c1ccc(CO)c(C)c1

>  <TGI>
> 100 µM

$$$$
>  <COMPOUND>
NNC(=O)CNC(=O)CSc1nnc(COc2ccc(Cl)cc2)n1-c1ccccc1

>  <TGI>
> 100 µM

$$$$
>  <COMPOUND>
CC(=O)C1=C(N=[N+]=[N-])c2cccc3cccc(c23)C1=O

>  <TGI>
30.1 µM

$$$$
>  <COMPOUND>
O=c1/c(=C/c2ccc(Cl)cc2Cl)sc2nc3ccccc3n12

>  <TGI>
> 100 µM

$$$$
>  <COMPOUND>
CC(C)=CCc1c(O)cc(/C=C/c2cc(O)c3c(c2)C[C@@H]2C(C)(C)[C@H](O)[C@H](O)C[C@@]2(C)O3)cc1O

>  <TGI>
3.02 µM

$$$$
>  <COMPOUND>
Cc1ccc(NC(=O)/C(CC(=O)c2c[n+](=O)c3ccccc3n2O)=N\NC(=O)C[n+]2ccccc2)cc1

>  <TGI>
> 100 µM

$$$$
>  <COMPOUND>
COc1cnc2c(c1)C(=O)c1c-2n(CCCn2ccnc2)c(=O)c2cc(Cl)ccc12

>  <TGI>
0.116 µM

$$$$

Ask: Please report the recorded TGI for CCC(Sc1nnc2c3ccccc3n(CC)c2n1)C(=O)Nc1ccccc1OC (stereo not given) .
Result: > 100 µM

Ask: Recorded TGI of O=C1CCCC/C1=C/C=C/c1ccccc1 , please.
Result: > 100 µM

Ask: Tell me the measured TGI of CCOc1ccccc1/C=C1\NC(=O)N(/C=C2\C(=O)Oc3ccccc3C2=O)C1=O , please.
Result: > 100 µM

Ask: Recorded TGI of CN1C(c2ccccc2)=CC(=O)C(O)=C(c2ccccc2)S1(=O)=O , please.
Result: > 100 µM

Ask: GET /values?readout=TGI&item= CC(=O)Oc1ccc2c(c1)c1c(=O)oc(N(C)C)nc1n2Cc1ccccc1
Result: > 100 µM

---

System: DU-145 prostate
MEASUREMENT_DESCRIPTION: NCI tumour cell line growth inhibition, 48 h
This section presents compounds with their documented TGI values.

Ask: What does the record list as TGI for O=C(CN1CCN(C(=O)OCc2ccccc2)CCN(CC(=O)N2CCCCC2)CCN(C(=O)OCc2ccccc2)CC1)N1CCCCC1 ?
Result: > 54.8 µM

Ask: What TGI value was documented for this compound, O=C(O)CSCC(=O)Nc1ccc2cccc3c2c1CC3 ?
Result: > 100 µM

Ask: Return reported TGI; argument: COc1cc(OC)c2c(c1OC)OCC(Cc1ccc(O)cc1)C2=O (stereo unspecified)
Result: > 25 µM

Ask: What value of TGI has been recorded for this entry: COCCOC(=O)C1=C(C)NC2=C(C(=O)CC(c3ccccc3OC)C2)C1c1cccc(O)c1 (stereo unspecified)
Result: > 91.9 µM

Ask: Any idea what TGI was measured for NC1C/C(=N\O)c2c(I)sc(I)c21 (stereo unspecified) ?
Result: 31.4 µM

Ask: Return reported TGI; argument: COc1ccc(Cc2nc3cc(C(F)(F)F)ccc3n2CCCN(C)C)cc1
Result: 40.4 µM

---

In this section we review reported TGI values for a set of molecules.
Tested on: MOLT-4 leukemia
MEASUREMENT_DESCRIPTION: NCI tumour cell line growth inhibition, 48 h
# value in µM; strip the unit string

>  <ITEM_SMILES>
COC(=O)NCCc1[nH]nc2c1C(=O)C=C(Nc1ccccc1)C2=O

>  <TGI [µM]>
54.4

$$$$

API: the following record is the query input.
Ask: Return reported TGI; argument: C#C[C@]1(O)CC[C@H]2[C@@H]3CC=C4c5sc(N=C(N)N)nc5CC[C@]4(C)[C@H]3CC[C@@]21C
Result: 1.01

---

System: DMS 273 small cell lung
MEASUREMENT_DESCRIPTION: NCI tumour cell line growth inhibition, 48 h
Documented TGI across a set of compounds

Solved entries:
>  <COMPOUND>
O=C(Nc1c(-c2nc3ccccc3[nH]2)sc(=S)n1-c1ccccc1)c1ccccc1

>  <TGI>
> 100 µM

$$$$
>  <COMPOUND>
O=c1cc(Cl)nc[nH]1

>  <TGI>
> 100 µM

$$$$
>  <COMPOUND>
CC(=O)OC12c3ccccc3C1CCCCCC21OCCCO1 (stereo not given)

>  <TGI>
> 100 µM

$$$$
>  <COMPOUND>
CC(c1ccc(Br)cc1)C(C(=O)O)C(=O)O (stereo not given)

>  <TGI>
> 100 µM

$$$$

Ask: Write down the reported TGI of C=C1CC(CCCl)(c2ccccc2)OC1=O (stereo not given) , test system: DMS 273 small cell lung.
Result: > 100 µM

Ask: Item: O=P(O)(O)C(CSc1ccccc1)P(=O)(O)O Test system: DMS 273 small cell lung Read-out: TGI Value: ?
Result: > 100 µM

---

Test system: T-47D breast
MEASUREMENT_DESCRIPTION: NCI tumour cell line growth inhibition, 48 h
MEASUREMENT_KIND: TGI

>  <COMPOUND>
C1COC(NC(C2CC2)C2CC2)=N1

>  <ENDPOINT_VALUE>
> 100 µM

$$$$

Ask: Query: TGI; subject: CC(=O)O[C@H]1C[C@]2(C)C(CCC3O[C@@]32C)[C@@]2(CC(c3ccoc3)OC2O)[C@@H]1C (stereo not given in full)
Result: > 100 µM

Ask: Entry COc1ccc2c(c1)c(C1(c3cn(C)c4ccc(OC)cc34)C(=O)Nc3ccc(F)cc31)cn2C has what TGI?
Result: > 100 µM

Ask: Could you tell me which TGI is on file for C=CC1CC12C(=O)C1OC2(C)C2C(=O)c3c(ccc4c3ccc3ccccc34)C(=O)C12 (stereo not given) ?
Result: > 100 µM

Ask: Given the entry O=[N+]([O-])c1ccccc1N=Nc1c(O)[nH]c2ccccc12 , report its measured TGI.
Result: > 100 µM

---

Here, each record is paired with measured TGI data.
Tested on: COLO 205 colon
MEASUREMENT_DESCRIPTION: NCI tumour cell line growth inhibition, 48 h

>  <COMPOUND>
Cc1ccc(C)c(NC(=O)c2cc(-c3ccc([N+](=O)[O-])cc3)nc(N)n2)c1

>  <TARGET_UNDER_TEST>
COLO 205 colon

>  <TGI>
> 100 µM

$$$$
>  <COMPOUND>
CC(NS(C)(=O)=O)c1ccccc1 (centres undefined)

>  <TARGET_UNDER_TEST>
COLO 205 colon

>  <TGI>
> 100 µM

$$$$
>  <COMPOUND>
O=[N+]([O-])c1ccccc1N=Nc1c(O)[nH]c2ccccc12

>  <TARGET_UNDER_TEST>
COLO 205 colon

>  <TGI>
> 100 µM

$$$$

Ask: Data request, read-out TGI, for O=C1OCC(C#Cc2ccccc2)=C1Cl
Result: 7.79 µM

Ask: What value of TGI has been reported for the following compound? CN1CCN(c2ccc3c4c(cccc24)C(=O)N(CCN2CCN(CCCN4CCN(CCN5C(=O)c6cccc7c(N8CCN(C)CC8)ccc(c67)C5=O)CC4)CC2)C3=O)CC1
Result: 21.8 µM

Ask: Tell me the measured TGI of O=C1c2ccccc2-c2nnc(-c3ccccc3)cc21 , please.
Result: > 10 µM

---

Entries and their TGI
Test system: CAKI-1 renal
MEASUREMENT_DESCRIPTION: NCI tumour cell line growth inhibition, 48 h

>  <COMPOUND>
O=C(c1cc(Cl)cc(Cl)c1)N(C(=S)OC12CC3CC(CC(C3)C1)C2)c1ccccc1

>  <MEASUREMENT_KIND>
TGI

>  <ENDPOINT_VALUE>
> 100 µM

$$$$
>  <COMPOUND>
O=C1c2ccccc2C(=O)N1c1ccc(S(=O)(=O)Nc2ncccn2)cc1

>  <MEASUREMENT_KIND>
TGI

>  <ENDPOINT_VALUE>
> 100 µM

$$$$
>  <COMPOUND>
COc1cc(OC)c2c(c1OC)OCC(Cc1ccc(O)cc1)C2=O (centres undefined)

>  <MEASUREMENT_KIND>
TGI

>  <ENDPOINT_VALUE>
> 25 µM

$$$$

Ask: Query (compound): O=C1C=C(Nc2ccccc2C(=O)CC(=O)C(=O)Nc2cccc(C(F)(F)F)c2)c2ccccc2C1=O ; field requested: TGI
Result: 99.8 µM

Ask: So what's the measured TGI for this one? C=C1c2c(cc3c(c2O)c(=O)c2ccccc2n3C)OC1(C)C
Result: > 100 µM

Ask: Query (compound): NC(=O)CCC(NCc1c2ccccc2[n+]([O-])c2ccccc12)C(=O)O (centres undefined) ; field requested: TGI
Result: > 100 µM

Ask: Value lookup for TGI; key = O=C1OC(c2ccc(O)c(Cl)c2)(c2ccc(O)c(Cl)c2)c2ccc(Br)c3cccc1c23 (tested in a mixture with another compound)
Result: 29.2 µM
